Every entry's value here was drawn from PubChem BioAssay.

- testDetails: human hepatoma cell viability loss – ATP luminescence, cytotoxicity control for P. falciparum antimalarial project, primary screen (AID 2303);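 note: 0% = DMSO wells and 100% = digitonin-killed cells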
- recordedConditions: HepG2 viability, 24-48 h, at 10 µM, hits give high values
// returns rule not met unless inhibition is strictly below 20%, in which case rule met

The examples below pair each entry with its known result.
compound | answerLabel
CCn1c(C)cc(C=C2SC(=Nc3ccccc3)NC2=O)c1C | rule not met
Fc1ccc(-c2oc(C3CCN(CCc4ccc(-c5nc(=S)o[nH]5)cc4)CC3)nc2COCC(F)(F)F)cc1 | rule met
O=C(/C=C/c1ccc(Cl)c(Cl)c1)NCCCCCCN1CCN(C(=O)Nc2cc(F)cc(F)c2)CC1 | rule not met
Clc1cc(Nc2ccnc3ccc(Br)cc23)ccc1Oc1ccc(Cl)c2ccccc12 | rule met
O=C(Nc1cccc(-c2nn3ccccc3c2-c2ccnc(Nc3ccccc3)n2)c1)c1cc(F)ccc1F | rule met
O=C(Nc1ccc(-c2cccc(-c3nc4ccc(F)cc4[nH]3)c2)cc1)Nc1ccc(Cl)c(Cl)c1 | rule not met
COc1cc(CCON2C(N)=NC(N)=NC2(C)C)cc(OC)c1OC | rule not met
CN(C)CCOc1cc(NC(=O)Nc2ccc(-c3ccccc3)cc2Cl)ccc1I | rule not met

# input for lookup
# input # strict comparison: is reported inhibition < 20%? input = OC(CNCc1ccccc1OCc1ccccc1)c1cc(C(F)(F)F)cc(C(F)(F)F)c1 (centres undefined)
# output rule met

---

- systemUnderTest: L-lactate dehydrogenase (Plasmodium falciparum (isolate CDC / Honduras))
- testDetails: PfLDH activity inhibition – cell lysate, 3D7 strain, counter-screen for P. falciparum growth inhibition project (AID 2304);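 note: 0% = vehicle and 100% = reference inhibitor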
- recordedConditions: P. falciparum 3D7 crude extract, LDH APAD/NBT absorbance; at 2 µM; hits give high values
measurementKind: inhibition (%)
Numbers only; they are read as %.

molecule | inhibition (%)
Cn1cc(C(=O)Nc2cccc(-c3cccc(-c4nc5ccc(F)cc5[nH]4)c3)c2)n(C)c1=O | -1
COc1ccc2c(NN=Cc3cccnc3)cc(C)nc2c1 | -2
O=C(CCN1CCCCC1)Nc1ccc(Nc2nccc(NCC(O)c3ccccc3)n2)cc1 (configuration not stated) | -1
COc1ccc(Cn2c(=O)[nH]c3cc(C(=O)NC4CCN(Cc5ccccc5)CC4)ccc3c2=O)cc1 | -7
Cc1cc(C(=O)CSc2nc3ccccc3n2-c2ccccc2)c(C)n1C1CCS(=O)(=O)C1 (configuration not stated) | 0
O=c1cc(NCCCNCc2[nH]c3cc(Cl)cc(Cl)c3c2Cn2cccn2)[nH]c2ccccc12 | 1
CC(C)(C)c1ccc(NC(=O)N[C@@H]2CCN(c3ccnc4ccccc34)C2)cc1 | 0
CCCCCCc1cc2cc(-c3nc(-c4ccc(OC)cc4)cs3)c(=O)oc2cc1O | -6

# input What reported inhibition corresponds to CCNCc1ccc(-c2cc3ncnc(Nc4ccc(OCc5cccc(F)c5)c(Cl)c4)c3s2)[nH]1 on L-lactate dehydrogenase (Plasmodium falciparum (isolate CDC / Honduras))?
# output 6

---

Measured growth inhibition accompanies every entry in the list below.
- testDetails: inhibition of 3D7 malaria parasite growth – strain 3D7 (AID 2306);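 note: 0% = DMSO wells and 100% = chloroquine plus artemisinin control wells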
- recordedConditions: P. falciparum 3D7 erythrocytic growth, LDH absorbance, 72 h; at 2 µM; hits give high values
Numbers only; they are read as %.

Example entries and their recorded answers appear below.
molecule | measurementKind | number
NC(N)=NC(=O)Nc1cc(Cl)c(Cl)c(Br)c1 | growth inhibition | 99
C=C[C@]1(C)C[C@@H](OC(=O)CS[C@H]2CN3CC[C@H]2C3)[C@@]2(C)C3C(=O)CC[C@@]3(CC[C@H]2C)[C@@H](C)[C@@H]1O (some centres undefined) | growth inhibition | 91
Cc1cc(N[C@@H](CC(C)C)C(=O)NCCOc2ccccc2)nc(NCCc2ccccc2)n1 | growth inhibition | 94
O=[N+]([O-])c1ccc(Nc2nc(NCc3ccccc3)nc(NN=Cc3ccccc3[N+](=O)[O-])n2)cc1 | growth inhibition | 101
CC(C)CCN1CCC(Oc2cccc(NC(=O)c3ccc(C(F)(F)F)cc3)c2)CC1 | growth inhibition | 98
CCOC(=O)CCCCCNC[C@H](O)c1ccccc1 | growth inhibition | 98
CS(=O)(=O)c1ccc(CNCc2ccc(-c3ccc(-c4nc5ccc(F)cc5[nH]4)s3)cc2)cc1 | growth inhibition | 102
CC(C)c1sc(N2CCN(C)CC2)nc1C(=O)Nc1cccc2c1CCCC2 | growth inhibition | 98

# input What measured growth inhibition goes with O=[N+]([O-])c1ccc2ncnc(Nc3ccc(F)c(Cl)c3)c2c1 ?
# output 100

# input What measured growth inhibition goes with COc1ccc2nccc([C@@H](O)CN3CCC(NC(=O)/C=C/c4ccc5cc(C)[nH]c5c4)CC3)c2c1 ?
# output 97

# input What measured growth inhibition goes with C[C@H](Cc1ccc(OCCCCCCOc2ccc(C[C@@H](C)NC[C@H](O)c3cccc(Cl)c3)cc2)cc1)NC[C@H](O)c1cccc(Cl)c1 ?
# output 99

# input What measured growth inhibition goes with Cc1[nH]c(C)c(-c2ccc(Br)cc2)c(=O)c1Br ?
# output 98

# input What measured growth inhibition goes with CCOc1c(OC)ccc2c1CCN(CCN1CCC(CNC(=O)c3ccc(-c4ccc(C#N)cc4)cc3)CC1)C2 ?
# output 92

# input What measured growth inhibition goes with COc1ccccc1C1CN(Cc2coc3ccccc3c2=O)Cc2ccccc2O1 (centres undefined) ?
# output 87

---

- systemUnderTest: L-lactate dehydrogenase (Plasmodium falciparum (isolate CDC / Honduras)) (UniProt Q27743)
- Sequence (Q27743 whole entry, looked up): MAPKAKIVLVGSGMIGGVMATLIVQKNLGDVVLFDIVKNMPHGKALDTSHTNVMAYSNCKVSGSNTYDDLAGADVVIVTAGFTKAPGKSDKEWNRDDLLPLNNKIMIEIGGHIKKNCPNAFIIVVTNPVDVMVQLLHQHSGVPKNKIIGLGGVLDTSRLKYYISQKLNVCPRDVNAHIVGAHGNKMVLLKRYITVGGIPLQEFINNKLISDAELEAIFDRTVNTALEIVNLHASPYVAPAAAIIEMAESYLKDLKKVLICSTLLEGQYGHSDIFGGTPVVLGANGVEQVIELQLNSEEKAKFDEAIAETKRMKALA
- testDetails: PfLDH activity inhibition – cell lysate, 3D7 strain, counter-screen for P. falciparum growth inhibition project (AID 2304);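 note: 0% = vehicle and 100% = reference inhibitor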
- recordedConditions: P. falciparum 3D7 crude extract, LDH APAD/NBT absorbance; at 2 µM; hits give high values
Measured inhibition accompanies every entry in the list below.
Numbers only; they are read as %.

Example entries and their recorded answers appear below.
compound | inhibition / %
CCCNc1ccc(-c2cc(C(N)=O)c3[nH]cc(C4CCN(S(=O)(=O)CC)CC4)c3c2)cn1 | -1
COc1ccc(CNC2Cc3ccccc3C2)cc1-c1ccc(S(=O)(=O)NCCN2CCCC2)cc1 | -7
O=C(Nc1ccc(Oc2ccccc2)cc1)N[C@H]1CCN(Cc2ccc(OCCCN3CCCCC3)cc2)C1 | -6
COc1cc2c(c(Cl)c1OC)CCN(C(=O)C(F)(F)F)CC2c1ccccc1 (centres undefined) | 8
CCCC(CNC(=O)c1cc2c(Cl)cc(Cl)cc2[nH]1)CNc1cc(=O)c2ccccc2[nH]1 (centres undefined) | -5

# input What measured inhibition goes with O=C(C=Cc1ccc(Cl)c(Cl)c1)NCCCCCN1CCCC(CCCNC(=O)c2sc3ccccc3c2Cl)C1 (centres undefined) ?
# output -3

# input What measured inhibition goes with Cc1cnc(-c2ccc(NC(=O)N3CCc4cc5nccc(N6CCN7CCC[C@H]7C6)c5cc43)c3ccccc23)o1 ?
# output -1

# input What measured inhibition goes with COc1ccc(-c2cnc3[nH]cc(-c4ccc(C(=O)O)cc4)c3c2)cn1 ?
# output -1

# input What measured inhibition goes with O=S1N=C(NCCCN(Cc2cccs2)c2ccccn2)C(NCc2ccccc2)=N1 (centres undefined) ?
# output 0

---

- testDetails: human hepatoma cell viability loss – ATP luminescence, cytotoxicity control for P. falciparum antimalarial project, primary screen (AID 2303);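 note: 0% = DMSO wells and 100% = digitonin-killed cells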
- recordedConditions: HepG2 viability, 24-48 h, at 10 µM, hits give high values
measurementKind: inhibition (%)
Numbers only; they are read as %.

Example entries and their recorded answers appear below.
molecule | number
COc1ccccc1C1CCN(C2CCC(NC(=O)/C=C/c3ccc(F)c(F)c3)CC2)CC1 (stereo not drawn) | 49
NC(=O)C1CCN(Cc2ccc(-c3ccc(-c4nc5ccc(C(F)(F)F)cc5[nH]4)cc3)cc2)CC1 | 25

# input What measured inhibition goes with OCCNc1nc(Nc2ccc(Cl)cc2)nc2ccccc12 ?
# output 30

---

Measured inhibition accompanies every entry in the list below.
- testDetails: human hepatoma cell viability loss – ATP luminescence, cytotoxicity control for P. falciparum antimalarial project, primary screen (AID 2303);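 note: 0% = DMSO wells and 100% = digitonin-killed cells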
- recordedConditions: HepG2 viability, 24-48 h, at 10 µM, hits give high values
Numbers only; they are read as %.

molecule | unitsSymbol | number
NC(=O)c1sc(-n2cnc3ccccc32)cc1OCc1ccccc1[N+](=O)[O-] | % | 10
Cc1cnc2cc3c(cc2c1N1CCN(C)CC1)NCC3 | % | 12
C/C=C/COc1ccc(-c2c(C)[nH]c(C)c(Cl)c2=O)cc1 | % | 0
Cc1cc2[nH]c(-c3ccc(C(=O)NCCCN4CCN(c5cccc(Cl)c5)CC4)s3)nc2cc1Cl | % | 7
Nc1c2ccccc2nc2ccc(Cl)cc12 | % | 55

# input What measured inhibition goes with c1cc(CN2CCN(c3ccncc3)CC2)cc(-c2cccc(-c3nc4ccccc4[nH]3)c2)c1 ?
# output 35

# input What measured inhibition goes with COc1ccc(-c2ccc(CN(C)C3CCC(NC(=O)c4cc5ccccc5[nH]4)CC3)cc2)cn1 (configuration not stated) ?
# output 31

# input What measured inhibition goes with CCCNCc1ccc(-c2ccc(CN(Cc3ccc4c(c3)OCO4)C(=O)Cc3cccnc3)cc2)nc1 ?
# output 16
